Recorded values, source ChEMBL document CHEMBL1145563.

Catalogue of inhibition values
- subject of test: UniProt:P14555
- Sequence (whole entry): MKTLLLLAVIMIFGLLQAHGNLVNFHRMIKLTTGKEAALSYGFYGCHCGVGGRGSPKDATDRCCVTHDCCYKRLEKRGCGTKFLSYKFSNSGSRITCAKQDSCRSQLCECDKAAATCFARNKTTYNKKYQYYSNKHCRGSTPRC
- protocol notes: Inhibition of sPLA2-2A at 10 uM by coupled enzyme assay
measurement name: inhibition (%)

1) CC/C=C\C/C=C\C/C=C\CCCCCCCC(=O)OCC(O)CO (stereo unspecified)    32
2) CCCCC/C=C/C/C=C\C/C=C/CCCCCCC(=O)OCC(O)CO (stereo unspecified)    53.9
3) CCCCC/C=C/C/C=C\C/C=C/C/C=C/CCCC(=O)OCC(O)CO (stereo unspecified)    33.6
4) CCCCC/C=C\C/C=C\C/C=C\CCCCC(=O)OCC(O)CO (stereo unspecified)    38.8
5) CCCCCCCC/C=C\CCCCCCCC(=O)OCC(O)CO (stereo unspecified)    60.6
6) CCCCC/C=C/C/C=C\CCCCCCCC(=O)OCC(O)CO (stereo unspecified)    38.1
